System: MDA-MB-468
run.description: Antiproliferative activity against ER negative human MDA-MB-468 cells expressing CYP1A1 and CYP1B1 assessed as reduction in cell viability in presence of CYP 1 inhibitor alpha-naphthoflavone at 1 uM measured after 96 hrs by MTT assay
Type: functional, cell-based
experimental.conditions: MDA-MB-468, 96 h
pIC50: −log10 of the molar value.
parameter: pIC50

## Input Quote pIC50 reported for `COc1ccc(-c2cc(-c3ccc4c(c3)OCO4)cc(=O)[nH]2)c(OC)c1` please.
## Output < 4.00

====

run.description: Selectivity index, ratio of IC50 for human MCF10A cells to IC50 for human MDA-MB-468 cells expressing CYP1A1 and CYP1B1
Type: toxicity
experimental.conditions: read-out: Ratio IC50
Label rule, in plain words: selectivity ratio of 20 and up is True, under 20 is False.

## Input # check: selectivity ratio of `COc1ccc(-c2cc(-c3ccc4c(c3)OCO4)[nH]c(=O)c2)c(OC)c1` is greater than or equal to 20
## Output False

## Input # check: selectivity ratio of `COc1ccccc1-c1cc(-c2ccc3c(c2)OCO3)cc(=O)[nH]1` is greater than or equal to 20
## Output True

## Input # check: selectivity ratio of `O=c1cc(-c2ccc3c(c2)OCO3)cc(-c2ccccc2)[nH]1` is greater than or equal to 20
## Output False

## Input # check: selectivity ratio of `COc1ccc(-c2cc(-c3ccc4c(c3)OCO4)cc(=O)[nH]2)c(OC)c1` is greater than or equal to 20
## Output True

## Input # check: selectivity ratio of `COc1ccc(OC)c(-c2cc(-c3ccc4c(c3)OCO4)cc(=O)[nH]2)c1` is greater than or equal to 20
## Output True

## Input # check: selectivity ratio of `COc1ccc(-c2cc(-c3ccc4c(c3)OCCO4)cc(=O)[nH]2)c(OC)c1` is greater than or equal to 20
## Output False

## Input # check: selectivity ratio of `COc1ccc(-c2cc(-c3ccc(OC)cc3OC)[nH]c(=O)c2)c(OC)c1` is greater than or equal to 20
## Output False

## Input # check: selectivity ratio of `COc1ccc(-c2cc(-c3ccc4c(c3)OCO4)cc(=O)[nH]2)cc1OC` is greater than or equal to 20
## Output True

====

System: MCF7
run.description: Antiproliferative activity against […]-induced ER positive human MCF7 cells expressing CYP1A1 assessed as reduction in cell viability after 96 hrs by MTT assay
Type: functional, cell-based
experimental.conditions: MCF7, 96 h
pIC50: −log10 of the molar value.
Label rule, in plain words: pIC50 of 6 and up is 1 (yes), under 6 is 0 (no).

## Input # check: pIC50 of `COc1ccc(OC)c(-c2cc(-c3ccc4c(c3)OCO4)cc(=O)[nH]2)c1` is greater than or equal to 6
## Output 1 (yes)

## Input # check: pIC50 of `COc1ccc(-c2cc(-c3ccc4c(c3)OCO4)cc(=O)[nH]2)cc1OC` is greater than or equal to 6
## Output 0 (no)

## Input # check: pIC50 of `COc1cc(-c2cc(-c3ccc4c(c3)OCO4)cc(=O)[nH]2)cc(OC)c1OC` is greater than or equal to 6
## Output 1 (yes)

## Input # check: pIC50 of `COc1ccc(-c2cc(-c3ccc4c(c3)OCO4)cc(=O)[nH]2)cc1` is greater than or equal to 6
## Output 0 (no)

## Input # check: pIC50 of `COc1cc(OC)cc(-c2cc(-c3ccc4c(c3)OCO4)cc(=O)[nH]2)c1` is greater than or equal to 6
## Output 1 (yes)

## Input # check: pIC50 of `COc1ccc(-c2cc(-c3ccc(OC)cc3OC)[nH]c(=O)c2)cc1` is greater than or equal to 6
## Output 1 (yes)

## Input # check: pIC50 of `CCCOc1ccc(-c2cc(-c3ccc(OC)cc3OC)[nH]c(=O)c2)cc1` is greater than or equal to 6
## Output 0 (no)

## Input # check: pIC50 of `COc1ccc(-c2cc(-c3ccc(OC)cc3OC)[nH]c(=O)c2)c(OC)c1` is greater than or equal to 6
## Output 0 (no)

## Input # check: pIC50 of `COc1ccc(/C=C\c2cc(OC)c(OC)c(OC)c2)cc1O` is greater than or equal to 6
## Output 1 (yes)

## Input # check: pIC50 of `COc1ccc(-c2cc(-c3ccc(OC)c(OC)c3)cc(=O)[nH]2)c(OC)c1` is greater than or equal to 6
## Output 1 (yes)

## Input # check: pIC50 of `O=c1cc(-c2ccc3c(c2)OCO3)cc(-c2ccc(Cl)cc2Cl)[nH]1` is greater than or equal to 6
## Output 0 (no)

## Input # check: pIC50 of `COc1ccc(-c2cc(-c3ccc4c(c3)OCO4)cc(=O)[nH]2)c(OC)c1` is greater than or equal to 6
## Output 0 (no)

## Input # check: pIC50 of `COc1ccc(-c2cc(-c3ccc4c(c3)OCO4)cc(=O)[nH]2)c(OC)c1OC` is greater than or equal to 6
## Output 0 (no)

## Input # check: pIC50 of `CCCOc1ccc(-c2cc(-c3ccc(OC)c(OC)c3)[nH]c(=O)c2)cc1` is greater than or equal to 6
## Output 0 (no)

## Input # check: pIC50 of `COc1ccccc1-c1cc(-c2ccc3c(c2)OCO3)cc(=O)[nH]1` is greater than or equal to 6
## Output 0 (no)

## Input # check: pIC50 of `COc1ccc(-c2cc(-c3ccc4c(c3)OCCO4)cc(=O)[nH]2)c(OC)c1` is greater than or equal to 6
## Output 0 (no)
